Source listed as paper PMC7479006.

# ASSAY REMARKS: Pharmacokinetics of flumatinib, M1 and M3 in plasma after a single oral 400 mg dose of flumatinib mesylate tablets, fasting vs high-fat diet (LC-MS/MS, non-compartmental)
# STUDY CONDITIONS: human, plasma, po, 400 mg, Tmax median(range), High-fat diet (N = 12), single oral 400 mg
QUANTITY KIND: Tmax (h)
Only the number, expressed in h, is required.

## Input Identify the reported Tmax for the following entry. Cc1ncc(NC(=O)c2ccc(CN3CCN(C)CC3)c(C(F)(F)F)c2)cc1Nc1nccc(-c2cccnc2)n1 [flumatinib]
## Output 3

* * *

# ASSAY REMARKS: Pharmacokinetics of flumatinib, M1 and M3 in plasma after a single oral 400 mg dose of flumatinib mesylate tablets, fasting vs high-fat diet (LC-MS/MS, non-compartmental)
# STUDY CONDITIONS: human, plasma, po, 400 mg, MRT, Fasting (N = 11), mean ± SD, single oral 400 mg
QUANTITY KIND: MRT (h)
Only the number, expressed in h, is required.

## Input Identify the reported MRT for the following entry. Cc1ncc(NC(=O)c2ccc(CN3CCN(C)CC3)c(C(F)(F)F)c2)cc1Nc1nccc(-c2cccnc2)n1
## Output 17.2
